Biological target: hLPA1 (Homo sapiens)
Assay: LPA1 functional antagonist assay (LPA-induced calcium flux in CHO cells overexpressing human LPA1)
Conditions: antagonist mode, inhibition of calcium flux induced by 10 nM LPA, read-out: hLPA1 IC50
Below, each entry is listed with its recorded pIC50.
Lab note — pIC50 values are minus log10 of concentrations in M.

# return pIC50 of `C[C@@H](OC(=O)Nc1c(-c2ccc(C34CCC(CC(=O)O)(CC3)OC4)cc2)cnn1C)c1ccccc1` (system: hLPA1 (Homo sapiens))
7.06

# return pIC50 of `C[C@@H](OC(=O)Nc1c(-c2ccc(C34CCC(CC(=O)O)(CC3)OC4)cc2)cnn1CC1CC1)c1ccccc1` (system: hLPA1 (Homo sapiens))
6.37

# return pIC50 of `CN(C(=O)OCc1c(-c2ccc(C34CCC(CC(=O)O)(CC3)OC4)c(F)c2)cnn1C)C1CCCC1` (system: hLPA1 (Homo sapiens))
6.63

# return pIC50 of `C[C@@H](OC(=O)Nc1c(-c2ccc(C34CCC(CCC(=O)O)(CC3)OC4)cc2)nnn1C)c1ccccc1Cl` (system: hLPA1 (Homo sapiens))
6.38

* * *

Biological target: hLPA1 (Homo sapiens, UniProt Q92633)
Sequence (Q92633 whole entry): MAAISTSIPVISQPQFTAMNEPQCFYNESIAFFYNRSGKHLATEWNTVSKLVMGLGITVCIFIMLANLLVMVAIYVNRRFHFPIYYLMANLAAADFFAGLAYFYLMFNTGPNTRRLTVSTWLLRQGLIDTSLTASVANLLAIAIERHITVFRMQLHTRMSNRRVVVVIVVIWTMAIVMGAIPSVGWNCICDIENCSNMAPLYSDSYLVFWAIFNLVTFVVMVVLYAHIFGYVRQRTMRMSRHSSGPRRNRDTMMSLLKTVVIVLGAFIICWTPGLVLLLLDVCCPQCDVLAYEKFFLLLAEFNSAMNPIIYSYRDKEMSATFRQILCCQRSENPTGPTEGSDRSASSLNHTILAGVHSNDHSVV
Assay: LPA1 functional antagonist assay (LPA-induced calcium flux in CHO cells overexpressing human LPA1)
Details: antagonist mode, inhibition of calcium flux induced by 10 nM LPA, read-out: hLPA1 IC50
Below, each entry is listed with its recorded IC50.
# output: numeric value plus its unit

# count of solved cases: 2
{"columns": ["molecule", "observed-measurement"],
 "data": [
  ["CN(Cc1ccccc1)C(=O)OCc1c(-c2ccc(C34CCC(CC(=O)O)(CC3)OC4)cc2)cnn1C", "0.767 µM"],
  ["C[C@@H](OC(=O)Nc1c(-c2ccc(C34CCC(CCC(=O)O)(CC3)OC4)cc2)nnn1C)c1ccccc1", "0.264 µM"]
]}

For `Cc1noc(-c2ccc(C34CCC(CC(=O)O)(CC3)OC4)c(F)c2)c1NC(=O)O[C@H](C)c1ccccc1Cl` , write its IC50.
0.056 µM

For Cc1cc(C23CCC(CC(=O)O)(CC2)OC3)ccc1-c1onc(C)c1NC(=O)O[C@H](C)c1ccccc1C (racemic) , write its IC50.
0.092 µM

For `Cc1noc(-c2ccc(C34CCC(CC(=O)O)(CC3)CO4)cc2)c1COC(=O)N(C)C1CCCC1` , write its IC50.
2.55 µM

For `Cn1ncc(-c2ccc(C34CCC(CC(=O)O)(CC3)OC4)cc2)c1COC(=O)N1CC[C@H](F)C1` , write its IC50.
1.9 µM

For `Cc1noc(-c2ccc(C34CCC(CC(=O)O)(CC3)CO4)c(F)c2)c1NC(=O)O[C@H](C)C1CC1` , write its IC50.
0.222 µM

* * *

Molecular target: hLPA1 (Homo sapiens)
Assay: LPA1 functional antagonist assay (LPA-induced calcium flux in CHO cells overexpressing human LPA1)
Details: antagonist mode, inhibition of calcium flux induced by 10 nM LPA, read-out: hLPA1 IC50
Below, each entry is listed with its recorded IC50.
Answer with a number only, understood to be in µM.

# count of solved cases: 2
{"columns": ["structure", "measured-property", "uom", "observed-measurement"],
 "data": [
  ["Cc1noc(C23CCC(c4ccc(CC(=O)O)cc4)(CC2)OC3)c1NC(=O)O[C@H](C)c1ccccc1Cl", "IC50", "µM", 0.093],
  ["CN(C(=O)OCc1c(-c2ccc(C34CCC(CC(=O)O)(CC3)OC4)c(F)c2)nnn1C)C1CCCC1", "IC50", "µM", 0.363]
]}

For `C[C@@H](OC(=O)Nc1c(-c2ccc(C34CCC(CC(=O)O)(CC3)OC4)c(F)c2)cnn1C)c1ccccc1` , write its IC50.
0.365

For `Cc1noc(-c2ccc(C34CCC(CC(=O)O)(CC3)CO4)cc2)c1NC(=O)O[C@H](C)C1CC1` , write its IC50.
0.583

* * *

Target: UniProt:Q92633
Experiment: LPA1 functional antagonist assay (LPA-induced calcium flux in CHO cells overexpressing human LPA1)
Settings: antagonist mode, inhibition of calcium flux induced by 10 nM LPA, read-out: hLPA1 IC50
Note to self: IC50 under 200 nM means Satisfied, ties and anything higher get Not satisfied.

{"columns": ["compound", "answer-label"],
 "data": [
  ["Cc1noc(-c2ccc(C34CCC(CC(=O)O)(CC3)OC4)c(F)c2)c1NC(=O)O[C@H](C)C1CC1", "Not satisfied"]
]}

Hi there! Is IC50 for `Cc1noc(-c2ccc(C34CCC(CC(=O)O)(CC3)CO4)cc2)c1NC(=O)O[C@H](C)c1ccccc1Cl` below 200 nM, do you know?
Not satisfied

Hi there! Is IC50 for `Cc1cc(C23CCC(CC(=O)O)(CC2)OC3)ccc1-c1cnn(C)c1NC(=O)O[C@H](C)c1ccccc1Cl` below 200 nM, do you know?
Not satisfied

Hi there! Is IC50 for `Cc1noc(-c2ccc(C34CCC(CC(=O)O)(CC3)OC4)cc2F)c1NC(=O)O[C@H](C)c1ccccc1` below 200 nM, do you know?
Satisfied

Hi there! Is IC50 for `C[C@@H](OC(=O)Nc1c(-c2ccc(C34CCC(C(=O)O)(CC3)OC4)cc2)cnn1C)c1ccccc1` below 200 nM, do you know?
Not satisfied

* * *

Target: hLPA1 (Homo sapiens)
Experiment: LPA1 functional antagonist assay (LPA-induced calcium flux in CHO cells overexpressing human LPA1)
Format: cell-based
Set-up: expressed in transfected cells; host or cells: Chinese hamster ovary (CHO) cells
Conditions: antagonist mode, inhibition of calcium flux induced by 10 nM LPA, read-out: hLPA1 IC50
measured-property: pIC50
Lab note — pIC50 values are minus log10 of concentrations in M.

# count of solved cases: 10
{"columns": ["compound", "pIC50"],
 "data": [
  ["Cc1noc(-c2ccc(C34CCC(CC(=O)O)(CC3)OC4)cc2)c1NC(=O)O[C@H](C)c1ccccc1Cl", 7.14],
  ["Cc1noc(-c2ccc(C34CCC(CC(=O)O)(CC3)OC4)cc2F)c1NC(=O)O[C@H](C)C1CC1", 6.06],
  ["Cc1noc(C23CCC(c4ccc(CC(=O)O)cc4)(CC2)OC3)c1NC(=O)O[C@H](C)c1ccccc1", 7.06],
  ["Cc1ccccc1[C@@H](C)OC(=O)Nc1c(C)noc1-c1ccc(C23CCC(CC(=O)O)(CC2)OC3)cc1F", 7.01],
  ["Cc1noc(-c2ccc(C34CCC(CC(=O)O)(CC3)OC4)cc2)c1NC(=O)O[C@H](C)c1ccccc1", 6.94],
  ["Cc1noc(-c2ccc(C34CCC(CC(=O)O)(CC3)OC4)cc2F)c1NC(=O)OC(C)c1ccc(Cl)cc1 (racemic)", 6.39],
  ["CC(C)CCN(C)C(=O)OCc1c(-c2ccc(C34CCC(CC(=O)O)(CC3)OC4)cc2F)cnn1C", 5.95],
  ["Cc1noc(-c2ccc(C34CCC(CC(=O)O)(CC3)OC4)cc2)c1NC(=O)O[C@H](C)C1CC1", 6.71],
  ["Cc1ccccc1[C@@H](C)OC(=O)Nc1c(C)noc1-c1ccc(C23CCC(CC(=O)O)(CC2)CO3)cc1", 6.52],
  ["Cc1noc(-c2ccc(C34CCC(CC(=O)O)(CC3)OC4)cc2F)c1NC(=O)OC(C)c1cccc(Cl)c1 (racemic)", 6.46]
]}

For `CC(C)CCN(C)C(=O)OCc1c(-c2ccc(C34CCC(CC(=O)O)(CC3)OC4)c(F)c2)cnn1C` , write its pIC50.
6.57

For `C[C@@H](OC(=O)Nc1c(-c2ccc(C34CCC(CC(=O)O)(CC3)OC4)cc2)cnn1C)c1ccccc1Cl` , write its pIC50.
6.79

* * *

Target: hLPA1 (Homo sapiens)
Test: LPA1 functional antagonist assay (LPA-induced calcium flux in CHO cells overexpressing human LPA1)
Conditions: antagonist mode, inhibition of calcium flux induced by 10 nM LPA, read-out: hLPA1 IC50
Below, each entry is listed with its recorded IC50.
Answer with a number only, understood to be in µM.

{"columns": ["molecule", "IC50, µM"],
 "data": [
  ["CC(C1CCC1)N(C)C(=O)OCc1c(-c2ccc(C34CCC(CC(=O)O)(CC3)OC4)cc2)cnn1C (racemic)", 0.166],
  ["Cc1ccccc1[C@@H](C)OC(=O)Nc1c(C)noc1-c1ccc(C23CCC(CC(=O)O)(CC2)OC3)c(F)c1", 0.119],
  ["Cc1cc(C23CCC(CC(=O)O)(CC2)OC3)ccc1-c1onc(C)c1NC(=O)O[C@H](C)c1ccccc1Cl", 0.185],
  ["Cc1noc(-c2ccc(C34CCC(CC(=O)O)(CC3)OC4)cc2)c1NC(=O)OC(C)c1ccc(Cl)cc1 (racemic)", 0.117]
]}

Could you now look at the following molecule, please?
For Cc1noc(-c2ccc(C34CCC(CC(=O)O)(CC3)OC4)c(F)c2)c1NC(=O)OC(C)c1cccc(Cl)c1 (racemic) , write its IC50.
0.692

Ref: patent US12428430B2
